These measurements were taken from patent US10851108B2.

Below, each entry is listed with its recorded pIC50.
- ASSAY SYSTEM: hROMK (human Kir1.1) (Homo sapiens (Human), UniProt P48048)
- Sequence (P48048 whole entry): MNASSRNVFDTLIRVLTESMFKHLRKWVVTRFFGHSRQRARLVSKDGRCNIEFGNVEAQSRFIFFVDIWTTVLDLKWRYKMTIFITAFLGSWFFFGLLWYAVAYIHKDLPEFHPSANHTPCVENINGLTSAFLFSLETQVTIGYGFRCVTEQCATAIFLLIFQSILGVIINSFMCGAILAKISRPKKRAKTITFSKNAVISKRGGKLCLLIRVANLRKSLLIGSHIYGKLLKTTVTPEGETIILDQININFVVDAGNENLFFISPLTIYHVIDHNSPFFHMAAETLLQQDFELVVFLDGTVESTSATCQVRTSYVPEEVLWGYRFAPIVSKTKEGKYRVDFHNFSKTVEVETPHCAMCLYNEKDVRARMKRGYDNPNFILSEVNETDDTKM
- EXPERIMENT SUMMARY: Thallium Flux Assay
- Format: cell-based
- CONDITION DESCRIPTION: CHO T-Rex hROMK stable cell line, 10-point concentration response; read-out: hROMK Th+ Flux IC50
In simple prose, pIC50 is minus the logarithm base ten of a concentration in moles per litre.

Example molecules with recorded pIC50:
> print(dat)
                                   molecule                              assay.system  test.value
1  Cc1c(CN2CCc3cc(-n4ccc5c(C#N)cccc54)ccc3C2)ccc2c1COC2=O [Example 24]  hROMK (human Kir1.1) (Homo sapiens (Human), UniProt P48048)        6.09
2  Cn1c(=O)oc2ccc(C(O)CN3CCc4nc(-n5ccc6c(C#N)cccc65)ncc4C3)cc21 (single isomer, unassigned) [Example 22-II]  hROMK (human Kir1.1) (Homo sapiens (Human), UniProt P48048)        6.15
3  Cn1c(=O)oc2ccc(C(O)CN3CCc4nc(-n5ccc6c(C#N)cccc65)ncc4C3)cc21 (single isomer, unassigned) [Example 22-I]  hROMK (human Kir1.1) (Homo sapiens (Human), UniProt P48048)        6.00

Req: Form field: reported pIC50 of Cc1c(CN2Cc3cnc(Nc4ccc(C#N)c(F)c4)nc3CC2CO)ccc2c1COC2=O (stereo not drawn) [Example 57-II]
Resp: 6.17

Req: Item under review: Cc1c(CN2CCc3nc(-n4cc(C#N)c5ccccc54)ncc3C2)ccc2c1COC2=O [Example 23] . Reported pIC50?
Resp: 5.96

Req: I have this molecule here, Cc1c(CN2Cc3cnc(Nc4ccc(C#N)c(F)c4)nc3CC2CO)ccc2c1COC2=O (single isomer, unassigned) [Example 57-I] , and I need its recorded pIC50.
Resp: 6.08

Req: Given N#Cc1cnc2c(ccn2-c2ncc3c(n2)CCN(Cc2ccc4c(c2)COC4=O)C3)c1 [Example 46] , state its recorded pIC50.
Resp: 5.82

Req: Please give the measured pIC50 for this molecule: N#Cc1ccc2c(cnn2-c2ncc3c(n2)CCN(Cc2ccc4c(c2)COC4=O)C3)c1 [Example 11]
Resp: 5.92

Req: Give the measured pIC50 of Cc1c(CN2CCc3cc(Nc4ccc(C#N)c(F)c4)ccc3C2)ccc2c1COC2=O [Example 30] .
Resp: 6.09
